This section presents compounds with their documented normalised viability values.
- System: MDA-MB-453
- assay text: normalised viability (% of control), CellTiter-Blue; higher = more viable cells (about 100 = DMSO control)
- assay setup: incubation time: 72 h
attribute measured: normalised viability

{"compound": "O=c1[nH]cc(F)c(=O)[nH]1 [Fluorouracil] (1000 nM)", "tested on": "MDA-MB-453", "result": "91.7%"}
{"compound": "COc1cccc2c1C(=O)c1c(O)c3c(c(O)c1C2=O)C[C@@](O)(C(C)=O)C[C@@H]3O[C@H]1C[C@H](N)[C@H](O)[C@H](C)O1 [Daunorubicin] (100 nM)", "tested on": "MDA-MB-453", "result": "94.8%"}
{"compound": "COC(=O)C[C@](O)(CCCC(C)(C)O)C(=O)O[C@@H]1C(OC)=C[C@]23CCCN2CCc2cc4c(cc2[C@H]13)OCO4 [Omacetaxine mepesuccinate] (1000 nM)", "tested on": "MDA-MB-453", "result": "15.1%"}
